system: Proto-oncogene tyrosine-protein kinase receptor Ret (Homo sapiens), P07949 [Y791F]; settings: at 1 µM
Sequence (P07949 whole entry Y791F): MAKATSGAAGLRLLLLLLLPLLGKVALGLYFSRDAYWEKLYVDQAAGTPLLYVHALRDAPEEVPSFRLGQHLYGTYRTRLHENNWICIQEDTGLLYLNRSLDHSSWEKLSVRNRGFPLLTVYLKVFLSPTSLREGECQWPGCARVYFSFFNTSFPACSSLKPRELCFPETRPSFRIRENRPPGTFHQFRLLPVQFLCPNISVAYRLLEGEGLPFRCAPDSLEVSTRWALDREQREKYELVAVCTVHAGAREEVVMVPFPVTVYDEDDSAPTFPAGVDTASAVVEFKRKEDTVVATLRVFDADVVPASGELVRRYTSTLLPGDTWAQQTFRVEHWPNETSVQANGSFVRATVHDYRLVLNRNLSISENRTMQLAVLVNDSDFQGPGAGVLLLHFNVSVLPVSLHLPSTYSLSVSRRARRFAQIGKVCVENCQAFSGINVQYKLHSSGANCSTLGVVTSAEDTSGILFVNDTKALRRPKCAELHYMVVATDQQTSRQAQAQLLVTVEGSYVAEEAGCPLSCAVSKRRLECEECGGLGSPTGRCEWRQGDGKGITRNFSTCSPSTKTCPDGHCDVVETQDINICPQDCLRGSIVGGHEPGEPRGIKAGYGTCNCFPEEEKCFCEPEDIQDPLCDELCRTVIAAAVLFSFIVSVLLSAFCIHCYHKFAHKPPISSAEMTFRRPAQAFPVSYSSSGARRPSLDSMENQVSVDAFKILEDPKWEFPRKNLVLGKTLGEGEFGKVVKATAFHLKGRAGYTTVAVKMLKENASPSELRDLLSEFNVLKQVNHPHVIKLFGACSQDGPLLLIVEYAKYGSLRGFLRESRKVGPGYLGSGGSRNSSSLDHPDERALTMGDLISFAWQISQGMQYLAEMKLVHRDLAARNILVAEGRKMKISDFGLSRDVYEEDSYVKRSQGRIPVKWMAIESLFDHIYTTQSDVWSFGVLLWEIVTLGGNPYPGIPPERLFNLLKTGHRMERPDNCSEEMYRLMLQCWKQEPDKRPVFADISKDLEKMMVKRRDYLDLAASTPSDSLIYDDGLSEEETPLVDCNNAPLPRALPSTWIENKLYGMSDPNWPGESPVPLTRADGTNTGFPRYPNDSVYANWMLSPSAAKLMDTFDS
Outcome: met for inhibition of at least 4%; not met for anything lower.

Smiles Data	Class Assignment
COc1cc(Nc2ncc(-c3ccccc3)o2)cc(OC)c1	met
c1cnn2ncc(-c3ccnc(NCCCN4CCOCC4)n3)c2c1	not met
Cc1nnc(-c2cccc(-c3ccc(C(=O)NCC4CC4)cc3)c2)o1	met
COc1cc2c(cc1Nc1nc(Nc3cccc(F)c3C(N)=O)c3cc[nH]c3n1)N(C(=O)CN1CCN(C(C)C)CC1)CC2	met
Fc1ccc(Nc2nccc(-c3c(-c4ccc(C(F)(F)F)cc4)nn4ncccc34)n2)cc1F	met

* * *

# inhibition per entry
biological target: Tyrosine-protein kinase BTK (Homo sapiens); settings: at 1 µM;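 further: values are mean percent inhibition of BTK across replicate measurements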
Quantity Kind: inhibition (%)

Smiles Data	System Name	Data Value
CCS(=O)(=O)c1ccc(OC)c(Nc2ncc(-c3cccc(F)c3)o2)c1	Tyrosine-protein kinase BTK (Homo sapiens)	28.6
CCN1CCC(C(=O)Nc2n[nH]c3nnc(-c4cccc(F)c4F)cc23)CC1	Tyrosine-protein kinase BTK (Homo sapiens)	-0.5
COc1ccc(Nc2ncc(-c3ccccc3)o2)cc1OC	Tyrosine-protein kinase BTK (Homo sapiens)	2.81
COc1ccccc1-c1cc(/C=C2\C(=O)Nc3ncc(Br)cc32)cc(Br)c1O	Tyrosine-protein kinase BTK (Homo sapiens)	2.07
CCS(=O)(=O)c1ccc(OC)c(Nc2ncc(-c3cccc(C(C)=O)c3)o2)c1	Tyrosine-protein kinase BTK (Homo sapiens)	8.89
Cc1cc(O)cc(C)c1/C=C/c1cncc(C(=O)OC(C)(C)C)c1	Tyrosine-protein kinase BTK (Homo sapiens)	12.8
Cc1ccc(-c2cc3c(NC(=O)C4CC4)ncnc3o2)cc1	Tyrosine-protein kinase BTK (Homo sapiens)	1.92
OCCCNc1nccc(-c2c(-c3ccc(F)cc3)nn3cc(C(F)(F)F)ccc23)n1	Tyrosine-protein kinase BTK (Homo sapiens)	0.45
COC(=O)Nc1nc2cc(Oc3ccc(NC(=O)Nc4ccccc4)cc3)ccc2[nH]1	Tyrosine-protein kinase BTK (Homo sapiens)	0.58

* * *

Reported inhibition values are given for each entry in this list.
biological target: MAP kinase-activated protein kinase 2 (Homo sapiens); settings: at 1 µM;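 further: values are mean inhibition from the GSK PKIS screen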
Quantity Kind: inhibition (%)

Smiles Data	Data Value
COc1cccc(Nc2nccc(-c3cnn4ncccc34)n2)c1	-0.06
CN1CCC(n2cnc(-c3ccc(F)cc3)c2-c2ccnc(NCCO)n2)CC1	2.43
NS(=O)(=O)c1ccc(N/N=C2\C(=O)Nc3ccc(C(=O)NCc4ccncc4)cc32)cc1	3.71
COc1cc(N2CCN(C(C)C)CC2)ccc1Nc1nc(Nc2cccc3ncccc23)c2cc[nH]c2n1	-0.87
CC1(C)CC(n2cnc(-c3ccc(F)cc3)c2-c2ccnc(N)n2)CC(C)(C)N1	-2.73

* * *

target: Serine/threonine-protein kinase SIK1 (Homo sapiens) (UniProt P57059); conditions: at 0.1 µM;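 further: reported as mean inhibition, part of the GSK PKIS screen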
Sequence (P57059 whole entry): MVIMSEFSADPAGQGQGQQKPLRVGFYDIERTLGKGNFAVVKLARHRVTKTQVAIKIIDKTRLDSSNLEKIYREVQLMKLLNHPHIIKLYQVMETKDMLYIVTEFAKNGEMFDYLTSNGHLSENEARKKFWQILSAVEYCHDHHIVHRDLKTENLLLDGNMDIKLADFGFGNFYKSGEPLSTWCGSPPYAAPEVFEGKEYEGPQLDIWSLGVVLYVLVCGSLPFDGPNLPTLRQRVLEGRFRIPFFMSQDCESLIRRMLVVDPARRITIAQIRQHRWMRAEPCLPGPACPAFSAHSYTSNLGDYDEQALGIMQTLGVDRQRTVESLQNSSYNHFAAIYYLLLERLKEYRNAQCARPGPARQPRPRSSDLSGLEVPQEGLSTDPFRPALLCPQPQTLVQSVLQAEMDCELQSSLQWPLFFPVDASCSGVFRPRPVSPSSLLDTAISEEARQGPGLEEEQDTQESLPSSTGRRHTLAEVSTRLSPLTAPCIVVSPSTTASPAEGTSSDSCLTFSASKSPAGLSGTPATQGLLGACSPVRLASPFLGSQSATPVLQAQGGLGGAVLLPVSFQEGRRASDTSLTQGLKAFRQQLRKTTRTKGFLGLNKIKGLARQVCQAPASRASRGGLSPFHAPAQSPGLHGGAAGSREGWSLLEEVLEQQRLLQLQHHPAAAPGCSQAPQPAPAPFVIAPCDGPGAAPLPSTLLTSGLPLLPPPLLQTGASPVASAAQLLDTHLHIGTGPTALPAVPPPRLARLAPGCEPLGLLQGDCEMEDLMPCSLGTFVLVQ
Reported inhibition values are given for each entry in this list.

Smiles Data	inhibition, %
c1ccc(-c2n[nH]cc2-c2ccnc(-c3ccc(OCCn4ccnc4)cc3)c2)nc1	1.64
CCN1CCC(C(=O)Nc2n[nH]c3nnc(-c4cccc(F)c4F)cc23)CC1	-3.64
CN(c1ccc(NC(=O)NCCN2CCOCC2)cc1)c1ccnc(Nc2ccc(CS(C)(=O)=O)cc2)n1	2.8
COc1cccc(Nc2nccc(-c3cnn4ncccc34)n2)c1	6.56
CS(=O)(=O)Nc1ccc(-c2cc(-c3ccccc3)cc(C(N)=O)c2N)cc1	1.69

Where do these numbers come from? They come from ChEMBL document CHEMBL1961873.
